target: 80S Ribosome (Homo sapiens) (UniProt P08865+P42677+P62753+P15880+P23396+P61247+P62701+P22090+P46782+P62081+P62241+P46781+P46783+P62280+P25398+P62277+P62263+P62841+P62244+P62249+P08708+P62269+P39019+P60866+P63220+P62266+P62847+P62851+P62854+P62979+P62857+P62273+P62861+P39023+P36578+P46777+Q02878+P18124+P62424+P62917+P32969+P27635+P62906+P62913+P30050+P26373+P40429+P50914+P61313+P18621+Q07020+Q02543+P84098+P46778+P35268+P62829+P62750+P83731+P61254+P61353+P46776+P46779+P47914+P62888+P62899+P62910+P49207+P42766+P18077+Q9Y3U8+P83881+P61927+P61513+P63173+P62891+P62945+P05388+P05386); assay: Induction of ribosome to readthrough in human A-T lymphoblastoid cells assessed as irradiation-induced ATM Ser1981 nuclear foci formation at 30 uM after 4 days by PTT-ELISA; assay type: subcellular
The source made the active and inactive calls. No cut-off for these calls is given here.
ATTRIBUTE MEASURED: Activity

> print(dat)
                             chemical.string  attribute.measured  observed
 1  Cc1cn(Cc2ccc(-c3ccccc3F)o2)c(=O)[nH]c1=O            Activity      9.6%
 2  Cc1cn(Cc2ccc(-c3ccccc3[N+](=O)[O-])o2)c(=O)[nH]c1=O            Activity  inactive
 3  O=c1[nH]c(=O)n(Cc2ccc(-c3ccccc3[N+](=O)[O-])o2)cc1F            Activity     14.5%
 4   O=c1ccn(Cc2ccc(-c3ccccc3F)o2)c(=O)[nH]1            Activity       20%
 5  O=Cc1cn(Cc2ccc(-c3ccccc3[N+](=O)[O-])o2)c(=O)[nH]c1=O            Activity       16%
 6   N=C1NC(=O)/C(=C/c2c[nH]c(=O)[nH]c2=O)S1            Activity       17%
 7  N=C1NC(=O)/C(=C/c2cn(Cc3ccc(-c4ccccc4[N+](=O)[O-])o3)c(=O)[nH]c2=O)S1            Activity       18%
 8  Nc1ccn(Cc2ccc(-c3ccccc3[N+](=O)[O-])o2)c(=O)n1            Activity  inactive
 9    O=c1ccn(Cc2ccc(-c3ccccc3)o2)c(=O)[nH]1            Activity      9.4%
10   Cc1cn(Cc2ccc(-c3ccccc3)o2)c(=O)[nH]c1=O            Activity     22.8%
11  O=c1ccn(Cc2ccc(-c3ccccc3[N+](=O)[O-])o2)c(=O)[nH]1            Activity     10.7%
12  Nc1nc(=O)n(Cc2ccc(-c3ccccc3[N+](=O)[O-])o2)cc1F            Activity  inactive
13  O=c1ccn(Cc2ccc(-c3cccc(Cl)c3)o2)c(=O)[nH]1            Activity     11.3%
